Molecular target: T1, human Y2 receptor (human, UniProt P49146 1-381)
T1 sequence (looked up): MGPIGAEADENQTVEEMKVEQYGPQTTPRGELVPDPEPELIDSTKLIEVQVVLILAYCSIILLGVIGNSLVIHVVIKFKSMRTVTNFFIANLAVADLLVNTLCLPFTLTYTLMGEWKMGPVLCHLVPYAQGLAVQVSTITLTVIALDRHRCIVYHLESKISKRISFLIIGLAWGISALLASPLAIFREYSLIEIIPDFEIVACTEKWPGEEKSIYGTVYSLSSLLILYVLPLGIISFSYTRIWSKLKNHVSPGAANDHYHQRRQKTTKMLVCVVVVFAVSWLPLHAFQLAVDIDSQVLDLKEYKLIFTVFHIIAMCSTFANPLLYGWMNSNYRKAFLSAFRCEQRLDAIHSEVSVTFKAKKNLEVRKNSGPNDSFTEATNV
Test: cell-based or functional assay
Non-standard residues stand in square brackets, D forms with d. Phe(3-Me) = Cc1cccc(C[C@H](N)C(=O)O)c1; Phe(2-Me) = Cc1ccccc1C[C@H](N)C(=O)O; tBuAla = CC(C)(C)C[C@H](N)C(=O)O; Cha = N[C@@H](CC1CCCCC1)C(=O)O; Aib = CC(C)(N)C(=O)O
observable: GBA EC50 Ratio ([35S]GTPγS binding)

>>> recordedmeasurement("Ac-S[dP]RH[Cha][tBuAla]NK[Aib]TRQR[Phe(3-Me)]-NH2 (SMILES CC(=O)N[C@@H](CO)C(=O)N1CCC[C@@H]1C(=O)N[C@@H](CCCNC(=N)N)C(=O)N[C@@H](Cc1c[nH]cn1)C(=O)N[C@@H](CC1CCCCC1)C(=O)N[C@@H](CC(C)(C)C)C(=O)N[C@@H](CC(N)=O)C(=O)N[C@@H](CCCCN)C(=O)NC(C)(C)C(=O)N[C@H](C(=O)N[C@@H](CCCNC(=N)N)C(=O)N[C@@H](CCC(N)=O)C(=O)N[C@@H](CCCNC(=N)N)C(=O)N[C@@H](Cc1cccc(C)c1)C(N)=O)[C@@H](C)O, also called compound No. 258) [Ac-[D-Pro24, Cha27, Leu(Me)28, Lys30, Aib31, Phe(3Me)36]-PYY(23-36)]")
"0.78 EC50 compound/EC50 PYY(3-36)"

Query binder follows.
*Q* Item under review: Ac-E[dP]RH[Cha][Cha]NK[Aib]TRQR[Phe(2-Me)]-NH2 (SMILES CC(=O)N[C@@H](CCC(=O)O)C(=O)N1CCC[C@@H]1C(=O)N[C@@H](CCCNC(=N)N)C(=O)N[C@@H](Cc1c[nH]cn1)C(=O)N[C@@H](CC1CCCCC1)C(=O)N[C@@H](CC1CCCCC1)C(=O)N[C@@H](CC(N)=O)C(=O)N[C@@H](CCCCN)C(=O)NC(C)(C)C(=O)N[C@H](C(=O)N[C@@H](CCCNC(=N)N)C(=O)N[C@@H](CCC(N)=O)C(=O)N[C@@H](CCCNC(=N)N)C(=O)N[C@@H](Cc1ccccc1C)C(N)=O)[C@@H](C)O, also called compound No. 256) [Ac-[Glu23, D-Pro24, Cha27,28, Lys30, Aib31, Phe(2Me)36]-PYY(23-36)] . Reported GBA EC50 Ratio ([35S]GTPγS binding)?
*A* 1.2 EC50 compound/EC50 PYY(3-36)
